Reference source for all entries: patent EP0620225B1

# Tested on: E.cloacae 908SSi
# Method Summary: Antibacterial spectrum (MIC), agar dilution
# Assay type: cell-based
# Condition Info: Enterobacter cloacae, read-out: MIC
Attribute Measured: MIC (µg/mL)

{"Compound": "CON1CC/C(=C\\C2=C(C(=O)O)N3C(=O)[C@@H](NC(=O)/C(=N\\O)c4csc(N)n4)[C@H]3SC2)C1=O [G]", "Reading Unit": "µg/mL", "MIC": 0.25}
{"Compound": "Nc1nc(/C(=N/O)C(=O)N[C@@H]2C(=O)N3C(C(=O)O)=C(/C=C4\\CCN(CC(F)(F)F)C4=O)CS[C@H]23)cs1 [E]", "Reading Unit": "µg/mL", "MIC": 0.25}
{"Compound": "CO/N=C(\\C(=O)N[C@@H]1C(=O)N2C(C(=O)O)=C(CSc3nc(=O)c(=O)[nH]n3C)CS[C@H]12)c1csc(N)n1 [Ceftriaxone, reference compound]", "Reading Unit": "µg/mL", "MIC": 0.25}

----------
# Test system: H.influenzae 1
# Method Summary: Antibacterial spectrum (MIC), agar dilution
# Format: cell-based
# Condition Info: Haemophilus influenzae, read-out: MIC
Attribute Measured: MIC (µg/mL)

Reference set, count: 3
{"Compound": "Nc1nc(/C(=N/O)C(=O)N[C@@H]2C(=O)N3C(C(=O)O)=C(/C=C4\\CCN(c5cnccn5)C4=O)CS[C@H]23)cs1", "Reading Unit": "µg/mL", "MIC": 0.5}
{"Compound": "Nc1nc(/C(=N/O)C(=O)N[C@@H]2C(=O)N3C(C(=O)O)=C(/C=C4\\CCN(CC(F)(F)F)C4=O)CS[C@H]23)cs1", "Reading Unit": "µg/mL", "MIC": 0.25}
{"Compound": "C#CCN1CC/C(=C\\C2=C(C(=O)O)N3C(=O)[C@@H](NC(=O)/C(=N\\O)c4csc(N)n4)[C@H]3SC2)C1=O", "Reading Unit": "µg/mL", "MIC": 0.25}

1 = COc1ccc(N2CC/C(=C\C3=C(C(=O)O)N4C(=O)[C@@H](NC(=O)/C(=N\O)c5csc(N)n5)[C@H]4SC3)C2=O)cc1
2 = C=CC1=C(C(=O)O)N2C(=O)[C@@H](NC(=O)/C(=N\O)c3csc(N)n3)[C@H]2SC1 [Cefdinir, reference compound]
Req: Would you kindly point out which of 1 and 2 has the smaller MIC figure? Please reply using the label of the selected record.
Resp: 1

----------
# System: S.pneumoniae PEN-R
# Method Summary: In vitro activity against selected species (MIC50, MIC90, range)
# Format: cell-based
# Condition Info: Streptococcus pneumoniae, medium IsoB + 20% serum
Attribute Measured: MIC50 (mg/L)

{"Chemical Smiles": "CON1CC/C(=C\\C2=C(C(=O)O)N3C(=O)[C@@H](NC(=O)/C(=N\\O)c4csc(N)n4)[C@H]3SC2)C1=O", "MIC50 (mg/L)": 0.5}
{"Chemical Smiles": "CC(C)(C)N1CC/C(=C\\C2=C(C(=O)O)N3C(=O)[C@@H](NC(=O)/C(=N\\O)c4csc(N)n4)[C@H]3SC2)C1=O", "MIC50 (mg/L)": 0.5}
{"Chemical Smiles": "Nc1nc(/C(=N/O)C(=O)N[C@@H]2C(=O)N3C(C(=O)O)=C(/C=C4\\CCN(CCF)C4=O)CS[C@H]23)cs1", "MIC50 (mg/L)": 0.5}
